Measured values drawn from ChEMBL document CHEMBL1201862 for this set.

System: SF-539
PROTOCOL: NCI tumour cell line growth inhibition, 48 h
Activity calls are given as the source filed them. Rule as the data show it: active = GI50 up to about 1.1 µM and inactive = higher.
Respond only with the outcome that fits, drawn from active, inactive

[[record]]
compound = "COc1ccc(/C=N/NC(=O)c2ccc(O)c(CN(C)C)c2)cc1"
tgt = "SF-539"
answer_label = "inactive"


// param item: "O=c1[nH]n(Cc2ccccn2)c2ccc([N+](=O)[O-])cc12" ; yields the recorded call
inactive

And for "N#CCCN(c1ccc(/C=C2\N=C(Cc3ccccc3)OC2=O)cc1)S(=O)(=O)c1ccccc1" ?
inactive

----------
Test system: PC-3
PROTOCOL: NCI tumour cell line growth inhibition, 48 h
Active and inactive are the calls of the source. Rule as the data show it: active = GI50 up to about 1.1 µM and inactive = higher.
ATTRIBUTE MEASURED: GI50

Example results:
[[record]]
compound = "COc1ccc(C2=Nn3c(nc4sc(C)c(C)c4c3=O)SC2)cc1"
attribute_measured = "GI50"
measured_value = "> 100 µM (inactive)"

[[record]]
compound = "Cc1cccc(C2NC(=O)c3ccccc3N2)c1 (centres undefined)"
attribute_measured = "GI50"
measured_value = "3.95 µM (inactive)"

[[record]]
compound = "CC(C)(C)CNCCO"
attribute_measured = "GI50"
measured_value = "> 100 µM (inactive)"


GI50 lookup needed for "CCOC(=O)NC(C(F)(F)F)(C(F)(F)F)P(=O)(OC(C)C)OC(C)C" , thanks.
> 100 µM (inactive)

And for COc1cc(C2c3cc4c(cc3[C@@H](Nc3ccc(C#N)cc3)C3COC(=O)[C@H]23)OCO4)cc(OC)c1O (some centres undefined) ?
9.82 µM (inactive)

And for CC1OC2/C=C\CC(O)C(C)(C)C3CCC(C)C4(O3)O[B-]35OC(C(=O)OC1C2)C1(OC(CCC1C)C(C)(C)C(O)C/C=C\C1CC(OC(=O)C4O3)C(C)O1)O5 (centres undefined) ?
2.77 µM (inactive)

And for "O=S(=O)(N/C(=N\O)Nc1ccc(Cl)cc1)c1cc(S(=O)(=O)c2ccccc2)cs1" ?
15 µM (inactive)

And for "c1ccc(-c2nnc(-c3ccccn3)c3c2C[C@@H]2C[C@@H]4Cc5c(-c6ccccn6)nnc(-c6ccccn6)c5[C@@H]4[C@H]32)nc1" ?
41.5 µM (inactive)

And for O=C(O)C1C2OC(C(Br)C2Br)C1C(=O)O (centres undefined) ?
> 100 µM (inactive)

----------
System: HOP-92
PROTOCOL: NCI tumour cell line growth inhibition, 48 h
Active and inactive are the calls of the source. Rule as the data show it: active = GI50 up to about 1.1 µM and inactive = higher.
Respond only with the outcome that fits, drawn from active, inactive

Answered examples (5):
[[record]]
compound = "COc1cc(S(=O)(=O)Nc2ccc(-c3csc(/N=C\\c4ccccc4)n3)cc2)ccc1Cl"
answer_label = "inactive"

[[record]]
compound = "CC1CCC2c3c([nH]c4ccccc34)C3C(=O)N(c4ccccc4)C(=O)C3C2C1 (stereo unspecified)"
answer_label = "inactive"

[[record]]
compound = "COc1cccc(-n2nnc3c(N)nc(N)nc32)c1"
answer_label = "inactive"

[[record]]
compound = "CC(=O)O[C@@H]1C(C2CCCCC2)C=[N+]([O-])O[C@@H]1OC1CCCC1(c1ccccc1)c1ccccc1 (stereo partly specified)"
answer_label = "inactive"

[[record]]
compound = "C[P+](C)(C)c1ccccc1"
answer_label = "inactive"


// param item: N=c1ccn2c(n1)OC1C(OP(=O)(O)O)C(CO)OC12 (stereo unspecified) ; yields the recorded call
inactive

And for CN(CC(=O)N1CC(CCl)c2ccc([N+](=O)[O-])cc21)CC(=O)N1CC(CCl)c2ccc([N+](=O)[O-])cc21 (stereo unspecified) ?
inactive

And for "N#Cc1c(C#N)c(SSc2c(C#N)c(C#N)c(N)n2-c2ccc(F)cc2)n(-c2ccc(F)cc2)c1N" ?
inactive

And for "Nc1ccc2c(c1)S(=O)(=O)c1cc(O)ccc1O2" ?
inactive

And for C=C1C(=O)OC2C1CCC(C)C1C=CC(=O)C12C (stereo unspecified) ?
inactive

And for CN(C)CCCOC(=O)C(O)(Cc1ccccc1)C1CC1 (stereo unspecified) ?
inactive

----------
Test system: NCI-H460
PROTOCOL: NCI tumour cell line growth inhibition, 48 h
The source made the active and inactive calls. No stated cut-off is given here; in the data, active = GI50 up to about 1.1 µM and inactive = higher.
Recorded GI50 by entry

GI50 lookup needed for "[N-]=[N+]=C(C(=O)N1CCCC1=O)S(=O)(=O)c1ccccc1" , thanks.
39 µM (inactive)

----------
System: UACC-257
PROTOCOL: NCI tumour cell line growth inhibition, 48 h
Calls of active or inactive are those of the source. Rule as the data show it: active = GI50 up to about 1.1 µM and inactive = higher.
Respond only with the outcome that fits, drawn from Yes for active, No for inactive

[[record]]
compound = "Cc1c(-c2ccccc2)[nH]c2cn[nH]c(=O)c12"
answer_label = "No"

[[record]]
compound = "COc1cc(C2C3=C(CCC3=O)Oc3cc4c(cc32)OCO4)cc(OC)c1OC (stereo unspecified)"
answer_label = "Yes"

[[record]]
compound = "Brc1ccc2c3c1[C@@H]1O[C@@H]1c1cccc(c1-3)[C@@H]1O[C@H]21"
answer_label = "No"

[[record]]
compound = "CCOC(=O)C(/C(=N\\NC(=O)OC)C(=O)Nc1cc(OC)ccc1OC)c1cnc2ccccc2n1 (stereo unspecified)"
answer_label = "No"

[[record]]
compound = "Nc1cc(Cl)cc2cc(Cl)cnc12"
answer_label = "No"


// param item: O=C(CN1CCN(c2cccc(Cl)c2)CC1)N1CCc2c([nH]c3ccccc23)C1c1cccnc1 (stereo unspecified) ; yields the recorded call
No

And for "COc1ccc(S(=O)(=O)N/N=C/C(=O)O)cc1" ?
No

And for "COC(=O)c1csc([C@@H](OC(=O)[C@H](C)[C@H](CCCC(C)(Cl)Cl)OC(=O)c2csc([C@H](O)CO)n2)C(C)C)n1" ?
No

And for "CCCCn1c(-c2ccc([N+](=O)[O-])cc2)cs/c1=N/N=C1\C(=O)Nc2ccc(Br)cc21" ?
No

And for C/C=C1\CC2C(=O)CCC2C2c3ccccc3OC12 (stereo unspecified) ?
No

And for "O=c1n(-c2ccccc2)c(=O)n2n1C1C=CC2CCCCCC1" ?
No

----------
Test system: OVCAR-5
PROTOCOL: NCI tumour cell line growth inhibition, 48 h
Activity calls are given as the source filed them. No stated cut-off is given here; in the data, active = GI50 up to about 1.1 µM and inactive = higher.
ATTRIBUTE MEASURED: GI50

Example results:
[[record]]
compound = "CC1(c2ccc(Cl)cc2)C2C(=O)NC(=O)C1C(=O)NC2=O (configuration not stated)"
tgt = "OVCAR-5"
measured_value = "> 100 µM (inactive)"

[[record]]
compound = "C[C@@H](c1ccccc1)N1CO[C@@]2(C#Cc3ccc4c(c3)OCO4)CCC[C@@H]12"
tgt = "OVCAR-5"
measured_value = "18.1 µM (inactive)"

[[record]]
compound = "Cc1ccc(S(=O)(=O)NC(=O)NCCc2c[nH]cn2)cc1"
tgt = "OVCAR-5"
measured_value = "> 100 µM (inactive)"

[[record]]
compound = "O=C(CNc1ccccc1Cl)Nn1c(-c2ccccc2)nc2ccccc2c1=O"
tgt = "OVCAR-5"
measured_value = "> 10 µM (inactive)"

[[record]]
compound = "Oc1cc(-c2ccc(F)cc2)nc2ncccc12"
tgt = "OVCAR-5"
measured_value = "98.9 µM (inactive)"


GI50 lookup needed for Cc1c(CNc2ccc(Cl)c(C(=O)NC(CC(=O)O)C(=O)O)c2)ccc2nc(N)nc(N)c12 (configuration not stated) , thanks.
1.4 µM (inactive)

And for "CC(C)OC(=O)c1cc(NC(=S)OC(C)C)ccc1Cl" ?
25.1 µM (inactive)

----------
Tested on: XF498
PROTOCOL: NCI tumour cell line growth inhibition, 48 h
Active and inactive are the calls of the source. Rule as the data show it: active = GI50 up to about 1.1 µM and inactive = higher.
Respond only with the outcome that fits, drawn from active, inactive

[[record]]
compound = "CC(C)=CCCC1(C)C=Cc2c(c(C)cc3c2[nH]c2cc(O)ccc23)O1 (stereo not given)"
tgt = "XF498"
answer_label = "inactive"

[[record]]
compound = "CCOC(OC1=C(C#N)CCCC1)C(CC)[Se]c1ccccc1[N+](=O)[O-] (stereo not given)"
tgt = "XF498"
answer_label = "inactive"

[[record]]
compound = "COc1ccc(C2C(Cl)C(=O)N2NC(=O)c2ccc(N)cc2)cc1 (stereo not given)"
tgt = "XF498"
answer_label = "inactive"

[[record]]
compound = "C/C(CC(=O)Nc1cccc([N+](=O)[O-])c1)=N\\NC(=O)C[n+]1ccccc1"
tgt = "XF498"
answer_label = "inactive"

[[record]]
compound = "CC(C)(C)C(=O)/C=C/c1ccc(Oc2ccccc2)cc1"
tgt = "XF498"
answer_label = "inactive"

[[record]]
compound = "O=P1(O)c2ccccc2Nc2cc(C(F)(F)F)ccc21"
tgt = "XF498"
answer_label = "inactive"

[[record]]
compound = "O=C(O)C(CS)Nc1c2ccccc2nc2ccccc12 (stereo not given)"
tgt = "XF498"
answer_label = "inactive"

[[record]]
compound = "CC(=O)OC(OC(C)=O)c1ncccc1C(=O)OC(C)C"
tgt = "XF498"
answer_label = "inactive"


// param item: COc1cc(C2C3=C(CCC3=O)Oc3cc4c(cc32)OCO4)cc(OC)c1OC (stereo not given) ; yields the recorded call
active

And for CCC1(c2ccc(N)cc2)CCC(=O)NC1=O (stereo not given) [AMINOGLUTETHIMIDE] ?
inactive

And for O=C(c1ccccc1)[C@H]1Nc2cnccc2C2c3ccccc3CC21 (stereo not given in full) ?
inactive

And for "O=C(Nc1cc(Cl)ccc1Cl)c1cc2cccc(Br)c2oc1=O" ?
inactive

And for CN(C)C1=NC2=S(SC(Nc3ccccc3)=N2)S1 (stereo not given) ?
inactive
